# assayed.target: P236L viral reverse transcriptase (Human immunodeficiency virus type 1 group M subtype B, UniProt P04585, P823L)
# Construct: P236L viral reverse transcriptase is obtained by PNAS 90: 4713-4717 (1993); made in house
# protocol.notes: inhibition of viral reverse transcriptase (P236L), cell free assay
# Assay type: biochemical
# measurement.setup: IC50 (Table I, P236L), 30 minutes at 37° C.
# Experimental: The utility of the pyrimidine-thioalkyl and alkylether anti-AIDS compounds of Formula IA of this invention can be determined by their ability to inhibit viral reverse transcriptase, an enzyme essential for human immunodeficiency virus replication. […] Inhibition of this enzyme is determined in a cell free assay which measures the level of radioactive precursors incorporated into DNA. […]
// NB: equality with 200 nM counts as Criterion not met; only IC50 strictly below is Criterion met

CC(C)c1cncc(C(C)Sc2nc(N)cc(Cl)n2)c1 (stereo not drawn) [Example 260]; Criterion met

Input line: Given CC(Sc1nc(N)cc(Cl)n1)c1cc2ccoc2cn1 (stereo not drawn) [Example 238] , is recorded IC50 strictly lower than 200 nM?
Output line: Criterion met

Input line: Given Nc1cc(Cl)nc(SCc2nc3ccccc3s2)n1 [Example 99] , is recorded IC50 strictly lower than 200 nM?
Output line: Criterion not met

Input line: Given COC(=O)/C=C/CSc1nc(N)cc(Cl)n1 [Example 193] , is recorded IC50 strictly lower than 200 nM?
Output line: Criterion not met

Input line: Given CC(Sc1nc(N)cc(Cl)n1)c1cc2ccoc2c(Cl)n1 (stereo not drawn) [Example 237] , is recorded IC50 strictly lower than 200 nM?
Output line: Criterion met

Input line: Given Cc1coc2cnc(C(C)Sc3nc(N)cc(Cl)n3)cc12 (stereo not drawn) [Example 246] , is recorded IC50 strictly lower than 200 nM?
Output line: Criterion met

Input line: Given CC(Sc1nc(N)cc(Cl)n1)c1cc(C2CC2)ccn1 (stereo not drawn) [Example 255] , is recorded IC50 strictly lower than 200 nM?
Output line: Criterion met

Input line: Given CC(Sc1nc(N)cc(Cl)n1)c1cc2c(cn1)OCC2 (stereo not drawn) [Example 247] , is recorded IC50 strictly lower than 200 nM?
Output line: Criterion met
